- System: HepG2
- TEST_DETAILS: Cytotoxicity against human HepG2 cells after 24 to 72 hrs by MTT assay
- Format: functional, cell-based
PARAMETER: pIC50
// pIC50: -log10(molar conc.)

Answered cases to consult:
# SMILES_ENTRY, pIC50
rows = [
    ("COc1ccc2oc(=O)cc(CSC(=S)N(C)C)c2c1", 4.22),
    ("CCOC(=O)Nc1ccc2c(CSC(=S)N(C)C)cc(=O)oc2c1", 4.18),
    ("COc1ccc2oc(=O)cc(CSC(=S)N3CCCC3)c2c1", 4.27),
    ("Cc1ccc2oc(=O)cc(CSC(=S)N(C)C)c2c1", 4.18),
]

// lookup pIC50 for "O=c1cc(CSC(=S)N2CCCC2)c2ccc(F)cc2o1"
4.20

Please answer likewise for "O=c1cc(CSC(=S)N2CCCC2)c2ccc3ccccc3c2o1"
4.21

Same for "O=c1cc(CSC(=S)N2CCCC2)c2cc(F)ccc2o1"
4.18

====

Each item that follows carries a reported pIC50.
- System: HepG2
- TEST_DETAILS: Cytotoxicity against human HepG2 cells after 24 to 72 hrs by MTT assay
- Assay type: functional, cell-based
A value of pIC50 is the negative decimal logarithm of a concentration given in moles per litre.

# SMILES_ENTRY, pIC50
data = [
    ("CN(C)C(=S)SCc1cc(=O)oc2ccc(F)cc12", 4.23),
    ("CCOC(=O)Nc1ccc2c(CSC(=S)N3CCCC3)cc(=O)oc2c1", 4.83),
    ("O=c1cc(CSC(=S)N2CCCC2)c2ccc(Cl)cc2o1", 4.22),
    ("COC(=O)Nc1ccc2c(CSC(=S)N(C)C)cc(=O)oc2c1", 4.21),
    ("CN(C)C(=S)SCc1cc(=O)oc2c1ccc1ccccc12", 4.19),
]

Please report the recorded pIC50 for "COc1ccc2c(CSC(=S)N3CCCC3)cc(=O)oc2c1" .
4.21

Same question for "Cc1cc(C)c2c(CSC(=S)N(C)C)cc(=O)oc2c1" please.
4.20

Each recorded value in this set is attributed to ChEMBL document CHEMBL3392987.
